Measured iScore, listed per entry for reference.
- TARGET DESC: T1, MHC class I allele B*0702 monomer (human, biotinylated, bound to streptavidin-coated plate)
- T1 construct: also called B7; HLA-B7
- MEASUREMENT NOTES: iTopia, multiparametric iScore
Answer as a number with no unit attached.

Below are worked cases with known answers.
In [3]: df
Out[3]:
                                     binder  number
0          LPAYVRNLF [5T4 9-mer peptide 45]   0.389
1  AALLAGRAL (also called AALLAGRAL) [5T4 9-mer peptide 101]   0.238
2         YVSFRNLTH [5T4 9-mer peptide 126]    0.21
3          APFLASAVS [5T4 9-mer peptide 23]   0.176
4         LPRDVLAQL [5T4 9-mer peptide 113]   0.305
5         LTYVSFRNL [5T4 9-mer peptide 125]   0.574
6         LPSLRHLDL [5T4 9-mer peptide 117]   0.445
7  PPLAELAAL (also called PPLAELAAL) [5T4 9-mer peptide 58]   0.145

Quickly give me recorded iScore for VLYLNRKGI [5T4 9-mer peptide 187]
0.164

Quickly give me recorded iScore for RLRLARLAL (also called RLRLARLAL) [5T4 9-mer peptide 8]
1

Quickly give me recorded iScore for SPTSSASSF [5T4 9-mer peptide 17]
0.335

Quickly give me recorded iScore for LPSLRQLDL [5T4 9-mer peptide 71]
0.454

Quickly give me recorded iScore for YPEKMRNRV [5T4 9-mer peptide 163]
0.242

Quickly give me recorded iScore for GAFARRPPL [5T4 9-mer peptide 55]
0.359
